test system: carrageenan-induced rat paw edema; experiment: Carrageenan-induced rat paw edema model; assay type: in vivo; conditions: 10.0 mg/kg, 1 h after carrageenan; mean ± SD
PARAMETER_MEASURED: Rat Paw Thickness (mm)

[[record]]
chem_smiles = "COc1ccc2cc([C@H](C)C(=O)NC(=S)Nc3ccc(C)cc3)ccc2c1"
result_value = 6.20

[[record]]
chem_smiles = "COc1ccc2cc([C@H](C)C(=O)NC(=S)Nc3ccccc3OC)ccc2c1"
result_value = 7.33

[[record]]
chem_smiles = "COc1ccc2cc([C@H](C)C(=O)O)ccc2c1"
result_value = 5.88


---

test system: carrageenan-induced rat paw edema; test: Carrageenan-induced rat paw edema model; type: in vivo; conditions: Rattus norvegicus; 10.0 mg/kg, 1 h
PARAMETER_MEASURED: inhibition in vivo at 10 mg/kg (%)

[[record]]
chem_smiles = "COc1ccc2cc([C@H](C)C(=O)NC(=S)Nc3ccccc3C)ccc2c1"
parameter_measured = "inhibition in vivo at 10 mg/kg"
result_value = 19.7

[[record]]
chem_smiles = "COC(=O)[C@H](Cc1ccccc1)NC(=S)NC(=O)[C@@H](C)c1ccc2cc(OC)ccc2c1"
parameter_measured = "inhibition in vivo at 10 mg/kg"
result_value = 19.7

[[record]]
chem_smiles = "COc1ccc2cc([C@H](C)C(=O)NC(=S)Nc3ccccc3F)ccc2c1"
parameter_measured = "inhibition in vivo at 10 mg/kg"
result_value = 19.7

